target: DNA topoisomerase 1 (Homo sapiens) (UniProt P11387); assay: Potency index, ratio of compound activity to CPT activity for inhibition of recombinant human topoisomerase 1 at 100 uM
// reported Ratio per item

[
  {
    "molecular string": "O=c1[nH]c(-c2cccc3ccccc23)nc2ccc(N3CCCCC3)cc12",
    "recorded metric": "Ratio",
    "test value": 1.24
  },
  {
    "molecular string": "Cc1ccc2c(=O)[nH]c(-c3ccccc3N(C)C)nc2c1",
    "recorded metric": "Ratio",
    "test value": 0.19
  },
  {
    "molecular string": "Cc1ccc2c(=O)[nH]c(-c3cccc(C(F)(F)F)c3)nc2c1",
    "recorded metric": "Ratio",
    "test value": 1.29
  },
  {
    "molecular string": "Cc1ccc2nc(-c3cccc(C(F)(F)F)c3)[nH]c(=O)c2c1",
    "recorded metric": "Ratio",
    "test value": 0.64
  },
  {
    "molecular string": "COc1cccc(-c2nc3ccc(C)cc3c(=O)[nH]2)c1",
    "recorded metric": "Ratio",
    "test value": 1.01
  },
  {
    "molecular string": "Cc1ccc2c(=O)[nH]c(-c3cccc4ccccc34)nc2c1",
    "recorded metric": "Ratio",
    "test value": 1.29
  }
]

Recall the recorded Ratio for Cc1cccc(-c2nc3cc(C)ccc3c(=O)[nH]2)c1 with DNA topoisomerase 1 (Homo sapiens) (UniProt P11387) and state it.
1.29

Recall the recorded Ratio for COc1cccc(-c2nc3cc(C)ccc3c(=O)[nH]2)c1 with DNA topoisomerase 1 (Homo sapiens) (UniProt P11387) and state it.
1.29

Recall the recorded Ratio for Cc1ccc2nc(-c3cccc4ccccc34)[nH]c(=O)c2c1 with DNA topoisomerase 1 (Homo sapiens) (UniProt P11387) and state it.
0.05

Recall the recorded Ratio for O=c1[nH]c(-c2cccc3ccccc23)nc2ccc(N3CCOCC3)cc12 with DNA topoisomerase 1 (Homo sapiens) (UniProt P11387) and state it.
1.24

Recall the recorded Ratio for CCN(CC)c1ccc2nc(-c3ccccc3C(F)(F)F)[nH]c(=O)c2c1 with DNA topoisomerase 1 (Homo sapiens) (UniProt P11387) and state it.
0.98

Recall the recorded Ratio for Cc1ccc2c(=O)[nH]c(-c3cccc(F)c3)nc2c1 with DNA topoisomerase 1 (Homo sapiens) (UniProt P11387) and state it.
0.93

Recall the recorded Ratio for CCN(CC)c1ccc2nc(-c3ccccc3N(C)C)[nH]c(=O)c2c1 with DNA topoisomerase 1 (Homo sapiens) (UniProt P11387) and state it.
0.99

Recall the recorded Ratio for Cc1ccc2c(=O)[nH]c(-c3ccccc3OC(F)(F)F)nc2c1 with DNA topoisomerase 1 (Homo sapiens) (UniProt P11387) and state it.
1.29

Recall the recorded Ratio for CCN(CC)c1ccc2nc(-c3ccccc3OC(F)(F)F)[nH]c(=O)c2c1 with DNA topoisomerase 1 (Homo sapiens) (UniProt P11387) and state it.
0.98

* * *

molecular target: DNA topoisomerase 1 (Homo sapiens) (UniProt P11387); experiment: Inhibition of recombinant human topoisomerase 1 assessed as relaxation of supercoiled plasmid DNA pBR322 at 20 uM incubated for 30 mins by agarose gel electrophoresis
recorded metric: inhibition (%)
Value expressed in %; do not type the unit.

What value of inhibition has been recorded for this entry: O=c1[nH]c(-c2cccc3ccccc23)nc2ccc(N3CCCCC3)cc12
33.4

* * *

Target: DNA topoisomerase 1 (Homo sapiens) (UniProt P11387)
Sequence (whole entry): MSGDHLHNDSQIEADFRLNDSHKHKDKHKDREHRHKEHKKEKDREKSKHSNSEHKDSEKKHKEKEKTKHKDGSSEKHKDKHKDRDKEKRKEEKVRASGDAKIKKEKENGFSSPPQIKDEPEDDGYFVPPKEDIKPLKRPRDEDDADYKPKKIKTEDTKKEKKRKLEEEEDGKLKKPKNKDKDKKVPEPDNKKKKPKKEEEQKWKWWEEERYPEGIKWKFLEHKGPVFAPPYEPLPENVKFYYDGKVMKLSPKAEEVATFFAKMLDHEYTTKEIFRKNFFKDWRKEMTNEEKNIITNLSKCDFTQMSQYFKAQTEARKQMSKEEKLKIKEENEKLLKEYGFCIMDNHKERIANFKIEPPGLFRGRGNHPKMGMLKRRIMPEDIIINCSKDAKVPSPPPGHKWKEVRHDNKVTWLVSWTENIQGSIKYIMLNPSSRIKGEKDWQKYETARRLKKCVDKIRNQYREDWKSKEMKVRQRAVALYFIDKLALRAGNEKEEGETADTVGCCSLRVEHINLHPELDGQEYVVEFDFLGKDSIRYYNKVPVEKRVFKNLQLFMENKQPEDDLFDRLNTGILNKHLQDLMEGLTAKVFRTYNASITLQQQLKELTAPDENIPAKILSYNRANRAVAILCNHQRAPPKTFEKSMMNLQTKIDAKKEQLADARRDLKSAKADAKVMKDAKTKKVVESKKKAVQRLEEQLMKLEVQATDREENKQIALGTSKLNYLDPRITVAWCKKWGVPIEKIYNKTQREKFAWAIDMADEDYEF
Test: Inhibition of recombinant human topoisomerase 1 assessed as relaxation of supercoiled plasmid DNA pBR322 at 100 uM incubated for 30 mins by agarose gel electrophoresis
Label 1 when inhibition is at or above 90%; otherwise label -1.

[
  {
    "molecular string": "CCN(CC)c1ccc2nc(-c3ccccc3N(C)C)[nH]c(=O)c2c1",
    "discrete label": -1
  },
  {
    "molecular string": "O=c1[nH]c(-c2cccc3ccccc23)nc2ccc(N3CCCCC3)cc12",
    "discrete label": 1
  },
  {
    "molecular string": "Cc1cccc(-c2nc3cc(C)ccc3c(=O)[nH]2)c1",
    "discrete label": 1
  },
  {
    "molecular string": "Cc1ccc2c(=O)[nH]c(-c3ccccc3N(C)C)nc2c1",
    "discrete label": -1
  },
  {
    "molecular string": "Cc1ccc2c(=O)[nH]c(-c3ccccc3C)nc2c1",
    "discrete label": 1
  }
]

Please indicate if the recorded inhibition for Cc1ccc2c(=O)[nH]c(-c3cccc4ccccc34)nc2c1 meets or exceeds 90%.
1

Please indicate if the recorded inhibition for COc1cccc(-c2nc3cc(C)ccc3c(=O)[nH]2)c1 meets or exceeds 90%.
1

Please indicate if the recorded inhibition for COc1cccc(-c2nc3ccc(C)cc3c(=O)[nH]2)c1 meets or exceeds 90%.
-1

Please indicate if the recorded inhibition for Cc1ccc2nc(-c3ccccc3N(C)C)[nH]c(=O)c2c1 meets or exceeds 90%.
-1

Please indicate if the recorded inhibition for Cc1ccc2nc(-c3ccccc3C(F)(F)F)[nH]c(=O)c2c1 meets or exceeds 90%.
-1

Please indicate if the recorded inhibition for Cc1ccc2nc(-c3ccccc3C)[nH]c(=O)c2c1 meets or exceeds 90%.
-1

Please indicate if the recorded inhibition for Cc1cccc(-c2nc3ccc(C)cc3c(=O)[nH]2)c1 meets or exceeds 90%.
-1

Please indicate if the recorded inhibition for Cc1ccc2nc(-c3cccc(C(F)(F)F)c3)[nH]c(=O)c2c1 meets or exceeds 90%.
-1

Please indicate if the recorded inhibition for Cc1ccc2c(=O)[nH]c(-c3ccccc3F)nc2c1 meets or exceeds 90%.
-1

Please indicate if the recorded inhibition for COc1cccc(-c2nc3ccc(N4CCCCC4)cc3c(=O)[nH]2)c1OC meets or exceeds 90%.
-1

Please indicate if the recorded inhibition for CN(C)c1ccc2nc(-c3cccc4ccccc34)[nH]c(=O)c2c1 meets or exceeds 90%.
1

Please indicate if the recorded inhibition for Cc1ccc2nc(-c3ccccc3OC(F)(F)F)[nH]c(=O)c2c1 meets or exceeds 90%.
-1

* * *

// reported inhibition per item
target: DNA topoisomerase 1 (Homo sapiens) (UniProt P11387); experiment: Inhibition of recombinant human topoisomerase 1 assessed as relaxation of supercoiled plasmid DNA pBR322 at 20 uM incubated for 30 mins by agarose gel electrophoresis

[
  {
    "molecular string": "Cc1ccc2nc(-c3ccccc3OC(F)(F)F)[nH]c(=O)c2c1",
    "inhibition": "0%"
  },
  {
    "molecular string": "CCN(CC)c1ccc2nc(-c3ccccc3C(F)(F)F)[nH]c(=O)c2c1",
    "inhibition": "13.3%"
  },
  {
    "molecular string": "Cc1ccc2nc(-c3ccccc3N(C)C)[nH]c(=O)c2c1",
    "inhibition": "21.1%"
  }
]

Recall the recorded inhibition for Cc1ccc2c(=O)[nH]c(-c3cccc(F)c3)nc2c1 with DNA topoisomerase 1 (Homo sapiens) (UniProt P11387) and state it.
4.3%

Recall the recorded inhibition for Cc1ccc2nc(-c3cccc(C(F)(F)F)c3)[nH]c(=O)c2c1 with DNA topoisomerase 1 (Homo sapiens) (UniProt P11387) and state it.
4.2%

Recall the recorded inhibition for Cc1ccc2nc(-c3cccc(F)c3)[nH]c(=O)c2c1 with DNA topoisomerase 1 (Homo sapiens) (UniProt P11387) and state it.
0.2%

Recall the recorded inhibition for Cc1cccc(-c2nc3ccc(C)cc3c(=O)[nH]2)c1 with DNA topoisomerase 1 (Homo sapiens) (UniProt P11387) and state it.
12.7%

Recall the recorded inhibition for CCN(CC)c1ccc2nc(-c3ccccc3OC(F)(F)F)[nH]c(=O)c2c1 with DNA topoisomerase 1 (Homo sapiens) (UniProt P11387) and state it.
0%

Recall the recorded inhibition for Cc1ccc2nc(-c3ccccc3F)[nH]c(=O)c2c1 with DNA topoisomerase 1 (Homo sapiens) (UniProt P11387) and state it.
36.3%

Recall the recorded inhibition for COc1cccc(-c2nc3ccc(C)cc3c(=O)[nH]2)c1 with DNA topoisomerase 1 (Homo sapiens) (UniProt P11387) and state it.
0%

The values you see were collected from ChEMBL document CHEMBL3632492.
